Listing of recorded pIC50 by entry.
Molecular target: Prostaglandin D2 receptor (Mus musculus)
Sequence (P70263 whole entry): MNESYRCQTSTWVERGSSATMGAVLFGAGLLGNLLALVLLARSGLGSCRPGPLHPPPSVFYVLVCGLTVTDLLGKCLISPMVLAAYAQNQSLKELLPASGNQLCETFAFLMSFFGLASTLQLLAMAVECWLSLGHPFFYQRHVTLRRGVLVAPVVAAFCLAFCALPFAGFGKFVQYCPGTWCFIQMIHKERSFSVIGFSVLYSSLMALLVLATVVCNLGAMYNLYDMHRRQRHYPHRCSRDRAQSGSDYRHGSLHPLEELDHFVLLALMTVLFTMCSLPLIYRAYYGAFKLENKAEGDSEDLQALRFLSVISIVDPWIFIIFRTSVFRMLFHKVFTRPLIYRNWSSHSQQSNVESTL
Assay: Antagonist activity at mouse prostanoid DP receptor expressed in CHO cells assessed as inhibition of PGD2-induced intracellular cAMP production after 10 mins by enzyme immunoassay
// scale note: pIC50 = -log10(conc_M); give the bare number

Cc1cc(C(=O)Nc2cc(CC(=O)O)ccc2Cl)c(C)cc1OC[C@@H]1CN(C)c2ccccc2O1 = 8.29
CN1C[C@@H](COc2ccc(C(=O)Nc3cc(C(F)(F)C(=O)O)ccc3Cl)c(Cl)c2)Oc2ccccc21 = 7.85
Cc1cc(OC[C@@H]2Cc3ccccc3O2)cc(C)c1C(=O)Nc1cc(CC(=O)O)ccc1Cl = 7.85
Cc1cc(C(=O)Nc2cccc(CC(=O)O)c2)c(C)cc1OC[C@@H]1CN(C)c2ccccc2O1 = 7.55
Cc1cc(OC[C@@H]2COc3ccccc3O2)cc(C)c1C(=O)Nc1cc(CC(=O)O)ccc1Cl = 8.37
Cc1cc(C(=O)Nc2cc(C(C)(C)C(=O)O)ccc2Cl)c(C)cc1OC[C@@H]1CN(C)c2ccccc2O1 = 7.37

Read the entry `Cc1ccc2c(c1)[C@H](COc1cc(C)c(C(=O)Nc3cc(CC(=O)O)ccc3Cl)c(C)c1)CO2` and write its reported pIC50.
7.62

Note down pIC50 recorded for `Cc1ccc(CC(=O)O)cc1NC(=O)c1c(C)cc(OC[C@@H]2CN(C)c3ccccc3O2)cc1C`
8.32

----------
assay: AUC (0 to infinity) in rat at 1 mg/kg, po administered as single dose; type: ADME, organism-based; parameters: time infinity, dose 1 mg/kg, route oral; conditions: plasma
metricName: AUC(0-inf) (ng·h/mL)
Please reply with the bare figure in ng·h/mL and do not write the unit itself.

Retrieve AUC(0-inf) measured for `Cc1cc(OC[C@@H]2CN(C)c3ccccc3O2)cc(C)c1C(=O)Nc1cc(CC(=O)O)ccc1Cl` and print it.
8120

State its AUC(0-inf): `Cc1cc(OC[C@@H]2CN(C)c3ccccc3O2)cc(C)c1C(=O)Nc1cc(C(C)(C)C(=O)O)ccc1Cl`
8280

----------
assay: Volume of distribution at steady state in rat at 1 mg/kg, iv administered as single dose; format: ADME, organism-based; parameters: dose 1 mg/kg, route intravenous; conditions: in vivo, read-out: Vdss
Each item that follows carries a reported Vd.
Answer format: numeric, L/kg implied, no suffix.

Cc1cc(OC[C@@H]2CN(C)c3ccccc3O2)cc(C)c1C(=O)Nc1cc(C(C)(C)C(=O)O)ccc1Cl = 0.669

Return reported Vd. Input compound: `Cc1cc(OC[C@@H]2CN(C)c3ccccc3O2)cc(C)c1C(=O)Nc1cc(CC(=O)O)ccc1Cl`
0.622

----------
assay: AUC (0 to infinity) in rat at 1 mg/kg, iv administered as single dose; format: ADME, organism-based; design: time infinity, dose 1 mg/kg, route intravenous; conditions: plasma
metricName: AUC(0-inf)
Hi, when you answer, please include the unit after the number. Thanks!

Cc1cc(OC[C@@H]2CN(C)c3ccccc3O2)cc(C)c1C(=O)Nc1cc(CC(=O)O)ccc1Cl = 11300 ng·h/mL

Report AUC(0-inf), nothing else, for this compound: `Cc1cc(OC[C@@H]2CN(C)c3ccccc3O2)cc(C)c1C(=O)Nc1cc(C(C)(C)C(=O)O)ccc1Cl`
9520 ng·h/mL
